Test system: recombinant soluble human CD73
Test: radiometric CD73 assay with [2,8-3H]AMP, recombinant soluble human CD73
Type: biochemical
Settings: human versus rat CD73
Measure: fold more potent at human CD73 as compared to the rat enzyme

Example molecules with recorded fold more potent at human CD73 as compared to the rat enzyme:
O=C(Nc1ccn([C@@H]2O[C@H](COP(=O)(O)CP(=O)(O)O)[C@@H](O)[C@H]2O)c(=O)n1)c1ccccc1 [7f]; 2 to 3 fold
O=c1[nH]/c(=N/OCc2ccccc2)c(F)cn1[C@@H]1O[C@H](COP(=O)(O)CP(=O)(O)O)[C@@H](O)[C@H]1O [9g]; 5 fold
O=c1[nH]c(=NOCc2ccc(C(F)(F)F)cc2)ccn1[C@@H]1O[C@H](COP(=O)(O)CP(=O)(O)O)[C@@H](O)[C@H]1O [9d]; 2 to 3 fold
O=c1[nH]c(=O)n([C@@H]2O[C@H](COP(=O)(O)CP(=O)(O)O)[C@@H](O)[C@H]2O)cc1F [4l]; 2 to 3 fold

Would you kindly look at the next entry?
fold more potent at human CD73 as compared to the rat enzyme measured on O=c1[nH]/c(=N/OCc2ccc3ccccc3c2)ccn1[C@@H]1O[C@H](COP(=O)(O)CP(=O)(O)O)[C@@H](O)[C@H]1O [9e] = 2 to 3 fold

###

Target: recombinant soluble rat CD73 (Rattus norvegicus)
Sequence (P21588 29-551 limits assumed): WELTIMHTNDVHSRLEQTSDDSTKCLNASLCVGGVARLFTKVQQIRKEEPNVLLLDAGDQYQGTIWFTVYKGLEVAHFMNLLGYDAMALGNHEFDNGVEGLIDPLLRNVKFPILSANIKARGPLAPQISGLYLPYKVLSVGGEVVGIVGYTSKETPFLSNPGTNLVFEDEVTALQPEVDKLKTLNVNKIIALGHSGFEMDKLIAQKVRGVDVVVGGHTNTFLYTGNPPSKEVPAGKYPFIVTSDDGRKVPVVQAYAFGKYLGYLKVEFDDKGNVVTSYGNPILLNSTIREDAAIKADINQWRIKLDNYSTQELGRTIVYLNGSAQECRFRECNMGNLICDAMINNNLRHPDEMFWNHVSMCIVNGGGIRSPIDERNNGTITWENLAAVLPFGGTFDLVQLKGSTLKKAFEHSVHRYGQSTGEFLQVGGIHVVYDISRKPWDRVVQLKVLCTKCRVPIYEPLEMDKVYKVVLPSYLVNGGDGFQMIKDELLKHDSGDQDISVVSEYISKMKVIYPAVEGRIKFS
Assay: radiometric CD73 assay with [2,8-3H]AMP, recombinant soluble rat CD73
Measure: Ki (µM)
Give just the numeric value; µM need not be written.

Ki measured on O=c1[nH]c(=NOCc2ccc(C(F)(F)F)cc2)ccn1[C@@H]1O[C@H](COP(=O)(O)CP(=O)(O)O)[C@@H](O)[C@H]1O = 0.0303

###

Target: recombinant soluble human CD73 (Homo sapiens, UniProt P21589)
Sequence (P21589 28-549): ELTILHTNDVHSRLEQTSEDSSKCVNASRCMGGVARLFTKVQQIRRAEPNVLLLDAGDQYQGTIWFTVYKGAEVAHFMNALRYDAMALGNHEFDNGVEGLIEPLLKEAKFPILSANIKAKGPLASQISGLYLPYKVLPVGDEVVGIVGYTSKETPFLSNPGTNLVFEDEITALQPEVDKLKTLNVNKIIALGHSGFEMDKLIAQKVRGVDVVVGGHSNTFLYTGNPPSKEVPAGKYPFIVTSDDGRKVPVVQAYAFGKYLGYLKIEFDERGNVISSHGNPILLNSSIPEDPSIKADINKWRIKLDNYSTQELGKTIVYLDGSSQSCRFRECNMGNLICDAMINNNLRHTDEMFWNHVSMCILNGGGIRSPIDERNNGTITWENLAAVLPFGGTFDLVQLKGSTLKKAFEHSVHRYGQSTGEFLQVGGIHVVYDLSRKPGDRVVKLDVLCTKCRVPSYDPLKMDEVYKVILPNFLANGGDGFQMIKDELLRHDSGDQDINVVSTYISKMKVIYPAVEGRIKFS
Experiment: radiometric CD73 assay with [2,8-3H]AMP, recombinant soluble human CD73
Assay type: biochemical
Measure: Ki (µM)
Give just the numeric value; µM need not be written.

Ki measured on O=c1[nH]c(=NOCc2ccc(C(F)(F)F)cc2)ccn1[C@@H]1O[C@H](COP(=O)(O)CP(=O)(O)O)[C@@H](O)[C@H]1O = 0.014

###

Molecular target: membrane-bound CD73 (MDA-MB-231 membrane preparation) (Homo sapiens)
Sequence (P21589 27-574): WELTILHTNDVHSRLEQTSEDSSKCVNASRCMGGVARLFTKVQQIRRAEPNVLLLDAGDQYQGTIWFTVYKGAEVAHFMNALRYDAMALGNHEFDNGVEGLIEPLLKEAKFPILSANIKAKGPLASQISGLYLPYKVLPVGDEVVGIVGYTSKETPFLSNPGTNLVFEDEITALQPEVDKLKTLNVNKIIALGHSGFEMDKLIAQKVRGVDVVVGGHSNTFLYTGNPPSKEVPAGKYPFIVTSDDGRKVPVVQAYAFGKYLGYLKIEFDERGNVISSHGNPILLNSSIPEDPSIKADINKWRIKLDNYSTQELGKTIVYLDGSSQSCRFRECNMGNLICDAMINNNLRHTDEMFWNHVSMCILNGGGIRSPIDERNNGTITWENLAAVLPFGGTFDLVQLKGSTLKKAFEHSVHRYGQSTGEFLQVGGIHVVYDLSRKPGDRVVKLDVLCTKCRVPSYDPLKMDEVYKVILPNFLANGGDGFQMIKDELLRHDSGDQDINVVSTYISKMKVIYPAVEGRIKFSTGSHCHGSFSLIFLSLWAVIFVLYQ
Measure: pKi
// pKi here means minus log10 of the molar concentration (mol/L)

pKi measured on O=c1[nH]c(=NOCc2ccc(C(F)(F)F)cc2)ccn1[C@@H]1O[C@H](COP(=O)(O)CP(=O)(O)O)[C@@H](O)[C@H]1O = 8.00
